As shown below, each of these compounds has a reported Percent Effect value.
- Test system: Trypanosoma cruzi
- TEST_DESCRIPTION: Trypanosoma cruzi phosphomannomutase and mannose-1-phosphate guanylyltransferase assay
- Assay type: functional
- Design: scale not given: direction of the effect not stated beside the values
- APPLIED_CONDITIONS: 10 µM
QUANTITY_MEASURED: Percent Effect (%)

CC(=O)N1CCC2(CCCN(Cc3ccc(Cl)c(C(F)(F)F)c3)C2)C1 (stereo unspecified)	1.07
NC(=O)c1cc(C2CCCN(CCc3ccccn3)C2)n[nH]1 (stereo unspecified)	3.29
Cc1cccc(-n2c(C)cc(C(=O)N3CCn4c(C)nnc4C3)c2C)c1	2.15
CC(C)Oc1ncccc1CNC(=O)C1CCCN(C(=O)C2CC2)C1 (stereo unspecified)	-4.89
Cc1nc(N2CCOCC2)nc2c1CCN(C(=O)NC1CCCC1)CC2	-11
CC(NC(=O)Cc1cccs1)c1nnc2n1CCCCC2 (stereo unspecified)	1.95

----------
As shown below, each of these compounds has a reported Percent Effect value.
- TARGET_UNDER_TEST: Protein translocase subunit SecA (Escherichia coli (strain K12)) (UniProt P10408)
- Sequence (P10408 whole entry): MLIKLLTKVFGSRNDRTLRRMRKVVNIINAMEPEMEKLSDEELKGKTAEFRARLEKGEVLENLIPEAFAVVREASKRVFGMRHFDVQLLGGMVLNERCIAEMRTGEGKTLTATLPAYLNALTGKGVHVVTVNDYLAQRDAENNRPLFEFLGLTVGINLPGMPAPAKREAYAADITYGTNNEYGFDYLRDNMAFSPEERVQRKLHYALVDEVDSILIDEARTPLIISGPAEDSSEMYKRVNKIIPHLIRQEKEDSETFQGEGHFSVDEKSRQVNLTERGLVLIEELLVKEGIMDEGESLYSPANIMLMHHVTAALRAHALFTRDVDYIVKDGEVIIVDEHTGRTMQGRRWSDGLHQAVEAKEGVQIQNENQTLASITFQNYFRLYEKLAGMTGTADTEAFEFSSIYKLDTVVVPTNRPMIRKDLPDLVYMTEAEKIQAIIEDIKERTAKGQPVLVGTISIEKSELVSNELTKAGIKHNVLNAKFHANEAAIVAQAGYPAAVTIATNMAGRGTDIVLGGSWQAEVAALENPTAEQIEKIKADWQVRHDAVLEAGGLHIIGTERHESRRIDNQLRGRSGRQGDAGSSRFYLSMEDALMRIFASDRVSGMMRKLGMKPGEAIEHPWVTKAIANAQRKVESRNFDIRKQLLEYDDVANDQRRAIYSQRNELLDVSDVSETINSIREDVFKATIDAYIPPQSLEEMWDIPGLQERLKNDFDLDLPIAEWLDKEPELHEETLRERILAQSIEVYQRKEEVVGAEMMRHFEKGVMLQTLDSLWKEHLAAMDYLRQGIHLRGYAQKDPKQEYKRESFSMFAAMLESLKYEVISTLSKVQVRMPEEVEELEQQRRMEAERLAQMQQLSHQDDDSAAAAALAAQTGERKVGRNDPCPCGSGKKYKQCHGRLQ
- TEST_DESCRIPTION: Assay to Identify E. coli SecA ATPase Inhibitors
- Format: functional
- Design: scale not given: direction of the effect not stated beside the values
- APPLIED_CONDITIONS: 30 µM
Entries with a potency or affinity are not part of this list.
QUANTITY_MEASURED: Percent Effect (%)

Cc1n[nH]c(C)c1C1COCCN1C(=O)c1cc(Cl)c[nH]1 (configuration not stated)	-1.38
Cn1ccnc1CN1CCC2(CC1)CC(NC(=O)c1ccccn1)CO2 (configuration not stated)	-1.87
CCOc1ccccc1-c1noc(CN(C)Cc2cnn(C)c2)n1	1.46
O=C(C1CC=CC1)N1CCC2(CC1)CN(Cc1ccccn1)CCO2	-2.34
COCC1COCCC12CCN(CCc1ccccc1)CC2 (configuration not stated)	-4.75
O=C(O)c1ccc2ccc(N3CCN(CC4CC4)CC3)n2c1	-3.4
O=C(CN(C1=NCCCC1)c1ccccc1)c1ccccc1	-3.17
Cc1cnn(C2CCCN(C(=O)Cc3ccc(-n4cccn4)cc3)C2)c1 (configuration not stated)	-6.71
CCn1ccnc1CN1CCN(CC(O)Cn2cccn2)CC1 (configuration not stated)	-5.85
O=C(c1cnccn1)N1CCCC2(COCCN(CC3CC3)C2)C1 (configuration not stated)	-3.64
O=C(CN1CCOC(Cn2cccn2)C1)Nc1nncs1 (configuration not stated)	-7.55
Cc1noc(C)c1C(=O)NCc1ccc(N2CCOC(C)C2)nc1 (configuration not stated)	-2.58

----------
- TARGET_UNDER_TEST: Ubiquitin-activating enzyme e1, putative (Leishmania donovani (strain BPK282A1))
- TEST_DESCRIPTION: Leishmania donovani Ubiquitin Activating Enzyme (LdE1)
- Type: functional
- Set-up: scale not given: direction of the effect not stated beside the values
- APPLIED_CONDITIONS: 30 µM
Potency and affinity values are given separately.
QUANTITY_MEASURED: Percent Effect (%)

CCc1nc(CN2CCCN(C(=O)C(C)n3cncn3)CC2)cs1 (stereo unspecified)	2.6
CCN(C(=O)Nc1cccnc1OC)C1CC1	15.6
COc1ccccc1-c1noc(CN2CCCC2Cn2cccn2)n1 (stereo unspecified)	-13.3
CC(=O)N1C[C@@H](c2ccsc2)[C@@H]2CN(Cc3cccc(Cl)c3)CC[C@@H]21	9.33
O=S(=O)(CCNC1CCc2ncnn2C1)c1ccccc1 (stereo unspecified)	0
CCOCC1CN(C(=O)N(C)C)Cc2nn(C)cc21 (stereo unspecified)	8
Cn1cc(CN2CC[C@H](O)[C@@H]2Cc2ccncc2)cn1	5.41
Cc1noc(C)c1CN1CCc2nn(C(C)C)c(=O)cc2C1	13.2
CN(CCO)Cc1nnc(C2CCN(C(=O)c3cccnc3)CC2)n1C	16
CNC(=O)[C@H]1C[C@@H]2CN(C(=O)Nc3ccc(F)cc3)C[C@H]1O2	13
CC(C)(C)c1nnc(CN2CCOC(Cn3cncn3)C2)o1 (stereo unspecified)	17.9
